system_tested: His-BRD4^BD2 + eGFP-FKBP12 (Homo sapiens, UniProt O60885+P62942)
Construct: the His6-tag of the respective BD1 or BD2 domain of BRD4 and EGFP-labeled FKBP12
Sequence (P62942 2-108 limits assumed, other chains not shown): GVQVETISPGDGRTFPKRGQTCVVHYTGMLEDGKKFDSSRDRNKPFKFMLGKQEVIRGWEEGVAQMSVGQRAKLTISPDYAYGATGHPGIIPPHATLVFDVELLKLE
measurement_notes: HTRF ternary complex formation BRD4 BD2 + EGFP-FKBP12
reported_conditions: eGFP-FKBP12 5 µM, His-BRD4^BD2 100 nM; read-out: HTRF BRD4^BD2 + GFP-FKBP12 Kd
endpoint_label: Kd

compound: Cc1sc2c(c1C)C(c1ccc(C#CCNC(=O)COCCn3cc(C4CN(Cc5ccccn5)C(=O)C5CCCC4N5S(=O)(=O)c4cc(Cl)cc(Cl)c4)nn3)cc1)=NC(CC(=O)OC(C)(C)C)c1nnc(C)n1-2 (stereo not shown)
system_tested: His-BRD4^BD2 + eGFP-FKBP12 (Homo sapiens, UniProt O60885+P62942)
endpoint_label: Kd
endpoint_value: 8 nM

compound: Cc1sc2c(c1C)C(c1ccc(Cl)cc1)=NC(CC(=O)N1CCC3(CC1)CC(n1cc(C4CN(Cc5ccccn5)C(=O)C5CCCC4N5S(=O)(=O)c4cc(Cl)cc(Cl)c4)nn1)C3)c1nnc(C)n1-2 (stereo not shown) [a13c]
system_tested: His-BRD4^BD2 + eGFP-FKBP12 (Homo sapiens, UniProt O60885+P62942)
endpoint_label: Kd
endpoint_value: 300 nM

compound: Cc1sc2c(c1C)C(c1ccc(Cl)cc1)=NC(CC(=O)NCCOCCn1cc(COCC3CN(C(C)c4ccccn4)C(=O)C4CCCC3N4S(=O)(=O)c3cc(Cl)cc(Cl)c3)nn1)c1nnc(C)n1-2 (stereo not shown)
system_tested: His-BRD4^BD2 + eGFP-FKBP12 (Homo sapiens, UniProt O60885+P62942)
endpoint_label: Kd
endpoint_value: 30 nM

compound: Cc1sc2c(c1C)C(c1ccc(Cl)cc1)=NC(CC(=O)NCCOCCn1cc(COCC3CN(Cc4ccccn4)C(=O)C4CCCC3N4S(=O)(=O)c3cc(Cl)cc(Cl)c3)nn1)c1nnc(C)n1-2 (stereo not shown)
system_tested: His-BRD4^BD2 + eGFP-FKBP12 (Homo sapiens, UniProt O60885+P62942)
endpoint_label: Kd
endpoint_value: 26 nM
